- testSystem: Cellular tumor antigen p53 (Homo sapiens) (UniProt P04637)
- Sequence (P04637 whole entry, looked up): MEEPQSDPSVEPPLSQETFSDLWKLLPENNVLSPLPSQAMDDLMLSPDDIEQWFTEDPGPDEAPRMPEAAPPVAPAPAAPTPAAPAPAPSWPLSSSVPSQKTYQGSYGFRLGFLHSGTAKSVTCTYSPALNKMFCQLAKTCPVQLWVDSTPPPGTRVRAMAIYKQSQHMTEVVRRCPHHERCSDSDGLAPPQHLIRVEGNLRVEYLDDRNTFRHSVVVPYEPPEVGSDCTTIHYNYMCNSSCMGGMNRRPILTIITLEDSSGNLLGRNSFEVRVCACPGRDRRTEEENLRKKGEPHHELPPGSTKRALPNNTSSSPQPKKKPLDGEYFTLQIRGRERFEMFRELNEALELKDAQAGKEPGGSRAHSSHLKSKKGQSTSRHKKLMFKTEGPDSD
- assaySummary: TOX21_p53_BLA_p5_ratio: Tox21 HCT-116 p53 Agonism Beta-lactamase Assay, Ratio, Phase 5 (AID 2283599)
Results filed as inconclusive are left out. The source made the active and inactive calls. The calls were made as follows: active = hit-call score of the fitted dose curve at least 0.9, where 1 is the maximum; inconclusive = response in the unintended direction; inactive = score below 0.9.
Can you answer with just one of these options? t for active, f for inactive

Please review the following examples before continuing.
# molecule, assignedClass
measured = [
    ("Clc1ccc(C(Cl)(Cl)Cl)cn1", "f"),
    ("Cc1cc(SCc2sc(-c3ccc(C(F)(F)F)c(F)c3)nc2C)ccc1OCC(=O)O", "t"),
]

Q: Hi team, can someone confirm the assay call for OCCCCO ?
A: f

Q: Hi team, can someone confirm the assay call for O=C(O)CC(O)(CC(=O)O)C(=O)O ?
A: f

Q: Hi team, can someone confirm the assay call for C=CCc1ccccc1O ?
A: f

Q: Hi team, can someone confirm the assay call for O=NN1CCOCC1 ?
A: f

Q: Hi team, can someone confirm the assay call for Cc1cccc(N=Nc2ccc(N(C)C)cc2)c1 ?
A: f

Q: Hi team, can someone confirm the assay call for CC(C)(C)c1cc([N+](=O)[O-])cc(C(C)(C)C)c1O ?
A: f

Q: Hi team, can someone confirm the assay call for O=C(CCl)Nc1ccccc1 ?
A: f

Q: Hi team, can someone confirm the assay call for CC1(C)[C@H](C(=O)O[C@H](C#N)c2cccc(Oc3ccccc3)c2)[C@@H]1/C=C(\Cl)C(F)(F)F ?
A: f

Q: Hi team, can someone confirm the assay call for CCOc1ccc(N)cc1 ?
A: f

Q: Hi team, can someone confirm the assay call for Cc1c([N+](=O)[O-])c(C)c([N+](=O)[O-])c(C(C)(C)C)c1[N+](=O)[O-] ?
A: f

Q: Hi team, can someone confirm the assay call for Nc1ccc(-c2ccccc2)cc1 ?
A: f

---

- assaySummary: ATG_XTT_Cytotoxicity: Cytotoxicity Assessment in the Attagene TRANS-FACTORIAL HepG2 Assay (AID 2283584)
Records with an inconclusive call do not appear. Activity calls are given as the source filed them. Rule for the calls: active = hit-call score of the fitted dose curve at least 0.9, where 1 is the maximum; inconclusive = response in the unintended direction; inactive = score below 0.9.
Can you answer with just one of these options? active, inactive

Please review the following examples before continuing.
# compound, assignedClass
records = [
    ("CNC(=O)N(C)c1nc2ccccc2s1", "inactive"),
    ("Cc1cc(-c2cc(C)c(N)c(C)c2)cc(C)c1N", "inactive"),
    ("Clc1cc(C(Cl)(Cl)Cl)cnc1Cl", "inactive"),
    ("CCOP(=S)(OCC)O/N=C(\\C#N)c1ccccc1", "inactive"),
    ("CC(c1ccccc1)(c1ccc(O)cc1)c1ccc(O)cc1", "active"),
    ("CCOC(=O)C(SP(=S)(OC)OC)c1ccccc1 (stereo not given)", "inactive"),
    ("Oc1cc(Cl)c(Cl)cc1Cl", "inactive"),
    ("CCCCS(=O)(=O)Cl", "inactive"),
]

Q: Hi team, can someone confirm the assay call for C=C(C)C(=O)OCCCCOC(=O)C(=C)C ?
A: inactive

Q: Hi team, can someone confirm the assay call for CCCCC(CC)COC(=O)Cl (stereo not given) ?
A: inactive

Q: Hi team, can someone confirm the assay call for Cc1ccccc1OP(=O)(Oc1ccccc1C)Oc1ccccc1C ?
A: inactive

Q: Hi team, can someone confirm the assay call for N#Cc1ccccc1Cl ?
A: inactive

Q: Hi team, can someone confirm the assay call for CN(C)C(=S)S ?
A: inactive

Q: Hi team, can someone confirm the assay call for NNCCO ?
A: inactive

Q: Hi team, can someone confirm the assay call for CC(C)O.CC(C)O.OCCN(CCO)CCO.OCCN(CCO)CCO.[Ti] ?
A: inactive

---

- testSystem: Hepatocyte nuclear factor 6 (Homo sapiens) (UniProt Q9UBC0)
- Sequence (Q9UBC0 whole entry, looked up): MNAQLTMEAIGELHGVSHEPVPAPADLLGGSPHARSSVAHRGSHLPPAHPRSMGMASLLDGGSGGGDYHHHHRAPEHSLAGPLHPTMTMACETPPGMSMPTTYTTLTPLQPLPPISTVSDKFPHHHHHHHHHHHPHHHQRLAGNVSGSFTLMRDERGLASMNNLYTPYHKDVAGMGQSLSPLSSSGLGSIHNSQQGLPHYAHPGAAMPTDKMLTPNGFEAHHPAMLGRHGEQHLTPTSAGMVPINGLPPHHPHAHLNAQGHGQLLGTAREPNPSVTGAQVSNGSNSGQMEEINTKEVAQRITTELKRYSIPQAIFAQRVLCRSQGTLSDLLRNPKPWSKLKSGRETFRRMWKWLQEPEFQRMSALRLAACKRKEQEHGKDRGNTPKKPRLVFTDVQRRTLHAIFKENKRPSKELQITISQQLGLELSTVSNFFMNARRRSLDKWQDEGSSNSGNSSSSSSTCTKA
- assaySummary: ATG_HNF6_CIS: Attagene CIS-FACTORIAL HepG2 Assay for human Hepatocyte Nuclear Factor 6 (HNF6) (AID 2282952)
- conditionSet: HepG2 Attagene cis-factorial HNF6 reporter transcription; actives raise or lower the signal
The source made the active and inactive calls. Rule for the calls: active = hit-call score of the fitted dose curve at least 0.9, where 1 is the maximum; inactive = score below 0.9.
Can you answer with just one of these options? active, inactive

Please review the following examples before continuing.
# compound, testSystem, assignedClass
records = [
    ("O=c1oc2ccccc2c(O)c1C(CC(O)c1ccc(-c2ccc(Br)cc2)cc1)c1ccccc1 (centres undefined)", "Hepatocyte nuclear factor 6 (Homo sapiens) (UniProt Q9UBC0)", "inactive"),
    ("C[C@H]1C(=O)O[C@@H]2CCN3CC=C(COC(=O)[C@](C)(O)[C@]1(C)O)[C@H]23", "Hepatocyte nuclear factor 6 (Homo sapiens) (UniProt Q9UBC0)", "inactive"),
    ("N#Cc1cccnc1", "Hepatocyte nuclear factor 6 (Homo sapiens) (UniProt Q9UBC0)", "inactive"),
    ("CC(c1ccc(O)cc1)c1ccc(O)cc1", "Hepatocyte nuclear factor 6 (Homo sapiens) (UniProt Q9UBC0)", "inactive"),
    ("CCCCCCCCCCCCCCC(Br)C(=O)O (centres undefined)", "Hepatocyte nuclear factor 6 (Homo sapiens) (UniProt Q9UBC0)", "active"),
]

Q: Hi team, can someone confirm the assay call for Cc1cccc(OP(=O)(Oc2cccc(C)c2)Oc2cccc(C)c2)c1 ?
A: inactive

Q: Hi team, can someone confirm the assay call for CC(F)(F)CC(F)(F)F ?
A: inactive

Q: Hi team, can someone confirm the assay call for CCOP(=S)(OCC)Oc1ccc(Cl)cc1Cl ?
A: inactive

Q: Hi team, can someone confirm the assay call for C=C(C)C(=O)OCC(CC)CCCC (centres undefined) ?
A: inactive

Q: Hi team, can someone confirm the assay call for C=CCc1ccccc1O ?
A: inactive

Q: Hi team, can someone confirm the assay call for CCCSP(=S)(OCC)Oc1ccc(Cl)cc1Cl (centres undefined) ?
A: inactive

Q: Hi team, can someone confirm the assay call for CN(C1CCCCC1)C1CCCCC1 ?
A: inactive

Q: Hi team, can someone confirm the assay call for O=NN1CCCCCCC1 ?
A: inactive

Q: Hi team, can someone confirm the assay call for Nc1nc(N)nc(Cl)n1 ?
A: inactive

---

- assaySummary: ATG_M_06_CIS: Attagene CIS-FACTORIAL HepG2 Assay for M06 Transcription Factor (Internal Marker) (AID 2282950)
- conditionSet: HepG2 Attagene CIS-FACTORIAL M06 internal marker reporter; actives raise or lower the signal
The source made the active and inactive calls. The calls were made as follows: active = hit-call score of the fitted dose curve at least 0.9, where 1 is the maximum; inactive = score below 0.9.
readoutName: outcome

# compound, outcome
measured = [
    ("O=CCCl", "inactive"),
    ("COC(=O)c1cc(Oc2ccc(Cl)cc2Cl)ccc1[N+](=O)[O-]", "inactive"),
    ("CCCCCCCCCCCCBr", "inactive"),
    ("O=C(NC(=O)c1c(F)cccc1F)Nc1cc(Cl)c(Oc2ncc(C(F)(F)F)cc2Cl)c(Cl)c1", "inactive"),
    ("Brc1c(Br)c(Br)c(Oc2c(Br)c(Br)c(Br)c(Br)c2Br)c(Br)c1Br", "inactive"),
]

Q: Recorded outcome of Clc1cnc(Oc2ccc(Oc3ncc(Cl)cc3Cl)cc2)c(Cl)c1 , please.
A: inactive

Q: Recorded outcome of O=C(Cc1ccccc1)OCCc1ccccc1 , please.
A: inactive

Q: Recorded outcome of O=C1C[C@@H]2OCC=C3CN4CC[C@]56c7ccccc7N1[C@H]5[C@H]2[C@H]3C[C@H]46 , please.
A: inactive

---

- testSystem: Retinoic acid receptor alpha (Homo sapiens)
- assaySummary: ATG_RARa_TRANS: Attagene TRANS-FACTORIAL HepG2 Assay for human Retinoic Acid Receptor alpha (RARa) (AID 2283005)
Records with an inconclusive call do not appear. The source made the active and inactive calls. How the source made its calls: active means hit-call score of the fitted dose curve at least 0.9, where 1 is the maximum; inconclusive means response in the unintended direction; inactive means score below 0.9.
Can you answer with just one of these options? y (active), n (inactive)

Please review the following examples before continuing.
# compound, testSystem, assignedClass
measured = [
    ("O=C1c2ccccc2C(=O)C1C(=O)C(c1ccccc1)c1ccc(Cl)cc1 (stereo not drawn)", "Retinoic acid receptor alpha (Homo sapiens)", "y"),
    ("CN(C1CCCCC1)C1CCCCC1", "Retinoic acid receptor alpha (Homo sapiens)", "n"),
    ("CC(C)[C@@H](Nc1ccc(C(F)(F)F)cc1Cl)C(=O)OC(C#N)c1cccc(Oc2ccccc2)c1 (stereo partly drawn)", "Retinoic acid receptor alpha (Homo sapiens)", "n"),
]

Q: Hi team, can someone confirm the assay call for Oc1c(Br)cc(Br)cc1Br ?
A: n

Q: Hi team, can someone confirm the assay call for CCCCCCCCCCCCCl ?
A: n

Q: Hi team, can someone confirm the assay call for CCOC(=O)c1ccccc1S(=O)(=O)NC(=O)Nc1nc(Cl)cc(OC)n1 ?
A: n

Q: Hi team, can someone confirm the assay call for NC(=O)CCl ?
A: n

Q: Hi team, can someone confirm the assay call for Cc1ccc2nc3sc(=O)sc3nc2c1 ?
A: n

Q: Hi team, can someone confirm the assay call for Cc1c([N+](=O)[O-])c(C)c([N+](=O)[O-])c(C(C)(C)C)c1[N+](=O)[O-] ?
A: n

Q: Hi team, can someone confirm the assay call for CC(C)C(C)(N)C#N (stereo not drawn) ?
A: n
